- Test system: Rattus norvegicus
- method-notes: Percent change in respiratory frequency (RF) expressed in beats / min in anesthetized rats by i.v. administration
- Assay type: functional
Can you tell me Change for the items I'm about to list?
Please report the result as a number followed by the unit.

Task item: Using the record for COc1ccc(/C=C/C(=O)NCCCC/N=C(\N)NCC=C(C)C)cc1OC , report its Change.
Reply: 21%

Task item: What do you have for CC(C)=CCNC(=N)NCCCCN ?
Reply: 4%

Task item: What do you have for NCCCCN=C(N)N ?
Reply: 12%

Task item: What do you have for CC(C)=CCN=C(N)N ?
Reply: 70%

Task item: What do you have for COc1ccc(/C=C/C(=O)NCCCCN=C(N)N)cc1OC ?
Reply: 4%

Reference for the values: ChEMBL document CHEMBL1132516
